EC50 overview
target: HuCD100 (cell surface) (human, UniProt Q92854); assay: FACS, Jurkat
Sequence (Q92854 22-734): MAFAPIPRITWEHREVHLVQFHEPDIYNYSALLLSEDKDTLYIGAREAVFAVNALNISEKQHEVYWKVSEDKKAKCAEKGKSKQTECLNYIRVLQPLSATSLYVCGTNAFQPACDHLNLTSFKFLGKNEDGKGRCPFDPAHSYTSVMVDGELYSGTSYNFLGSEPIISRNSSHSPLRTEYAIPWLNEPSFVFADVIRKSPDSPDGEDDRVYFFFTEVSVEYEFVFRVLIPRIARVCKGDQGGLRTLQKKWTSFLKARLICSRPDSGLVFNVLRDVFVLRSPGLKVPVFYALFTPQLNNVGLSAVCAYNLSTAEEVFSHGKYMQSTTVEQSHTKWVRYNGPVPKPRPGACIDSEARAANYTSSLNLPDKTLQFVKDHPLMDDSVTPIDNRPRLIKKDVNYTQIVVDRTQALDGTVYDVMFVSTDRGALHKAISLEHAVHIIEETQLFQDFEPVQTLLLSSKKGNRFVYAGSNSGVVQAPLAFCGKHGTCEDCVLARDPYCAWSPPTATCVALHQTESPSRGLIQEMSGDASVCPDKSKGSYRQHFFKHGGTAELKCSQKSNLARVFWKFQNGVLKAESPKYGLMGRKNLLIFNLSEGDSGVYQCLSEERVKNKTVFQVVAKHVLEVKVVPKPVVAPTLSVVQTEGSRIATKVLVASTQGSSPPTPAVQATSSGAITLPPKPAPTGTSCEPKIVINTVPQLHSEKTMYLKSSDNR
# number only, unit µg/mL dropped from output

H12 (antibody, V domains shown) VH: QVQLQESGPGLVKPSGTLSLTCAVSGGSISSSNWWSWVRQPPGKGLEWIGEIYHSGSTNYNPSLKSRVTISVDKSKNQFSLKLSSVTAADTAVYYCARFVSSGYLGAFDIWGQGTMVTVSS VL: QSVLTQPPSVSVSPGQTASITCSGDRLGDKYSYWYQQKPGQSPVLVIYQDSKRPSGIPERFSGSNSGNTATLTISGTQAMDEADYYCQVWDSSTAVFGGGTKLTVL : 0.028
C-C171 (antibody, V domains shown) VH: QVQLQESGPGLVKPSGTLSLSCTVSGGSMSSNYLWSWVRQTPGKGLQWIGDIFHSGRTYYNPSLKRRVTISVDKSKNQFSLKLSSVTAADTAVYYCARQGWTTPFDYWGQGTPVTVSS VL: DIQLTQSPSSVSASVGDRVTITCRASQGISSWLAWYQQKPGKAPKLLIYAASSLQSGVPSRFSGSGSGTDFTLTISSLQPEDFATYYCLQDVYYPWTFGQGTTVEIK : 0.449
H21 (antibody, V domains shown) VH: EVQLVQSGGGLVQPGRSLRLSCAASGFTFDDYAMHWVRQAPGKGLEWVSGISWNSGSIGYADSVKGRFTISRDNAKNSLYLQMNSLRAEDTALYYCAKDIGGSYFDYYYYGMDVWGQGTLVTVSS VL: EIVLTQSPATLSLSPGERATLSCRTSHNVNTYIAWYQQKPGQAPRLLFYDSSTRLPDTPARFSGSGSGTDFTLTISSLEPEDFAVYYCQQRTSWPLTFGGGTKVEIK : 0.0258
H96 (antibody, V domains shown) VH: QVQLQQWGAGLLKPSETLSLTCAVYGGSFSGYYWSWIRQPPGKGLEWIGEINHSGSTNYNPSLKSRVTISVDTSKNQFSLKLSSVTAADTAVYYCARESNSYGYGTDYWGQGTLVTVSS VL: QSALTQPPSVSVSPGQTATITCSGDKLGEKYAFWYQQKPGQSPVLVIYQDNKRPSGIPERFTGSNSGNTATLTIFGTQTMDEADYYCQAWDSSTYVFGTGTKVTVL : 0.0162

// next item, EC50 requested
Query :: Retrieve EC50 measured for H5 (antibody, V domains shown) VH: QLQLQESGPGLVKPPGTLSLTCAVSGGSISSSNWWSWVRQPPGKGLEWIGEIYHSGSTNYNPSLKSRVTISVDTSKNQFSLKLSSVTAADTAVYYCAVYDFWSGSGLDYWGQGTLVTVSS VL: SYVLTQPPSVSVSPGQTASITCSGDKLGDKFASWYQQKPGQSPVLVIYQDRKRPSRIPERFSGSNSGNTATLTITGTQTIDEADYYCQAWDSGTVIFGGGTKLTVL and print it.
Result :: 0.0184
